Each recorded value in this set is attributed to patent US5955632A.

- Assayed system: Na^+,K^+ -ATPase (Canis lupus familiaris, UniProt P50997)
- Construct: from tissue; the cited Jorgensen 1974 method uses outer medulla of mammalian kidney (own knowledge)
- Assay: biochemical
- Test settings: purified Na^+,K^+-ATPase, ^32P-ATP hydrolysis; read-out: Inhibitory Activity log IC50 (converted)
Please go through the items and note down their IC50.
Give the number first and the unit second.

**Query** What does the record list as IC50 for CC[C@H](/C=N/OCCN(C)C)[C@@]1(C)CC[C@H]2[C@@H](CC[C@@H]3C[C@@H](O)CC[C@@]32C)C1=O [Comp. I-ai] ?
**Result** 100 µM

**Query** Item under review: CC[C@@H](C/C=C/C=N/OCCN(C)C)[C@@]1(C)CC[C@H]2[C@@H](CC[C@@H]3C[C@@H](O)CC[C@@]32C)C1=O [Comp. I-be] . Reported IC50?
**Result** 6.31 µM

**Query** IC50 lookup needed for CC[C@@H](C/C=N/NC(=N)N)[C@@]1(C)CC[C@H]2[C@@H](CC[C@@H]3C[C@@H](O)CC[C@@]32C)C1=O [Comp. I-ay] , thanks.
**Result** 3.16 µM

**Query** # IC50 lookup, item CC[C@@H](/C=N/OCCN(C)C)[C@@]1(C)CC[C@H]2[C@@H](CC[C@@H]3C[C@@H](O)CC[C@@]32C)C1=O [Comp. I-ak]
**Result** 7.94 µM
